pIC50: −log10 of the molar value.
Assay read-out pIC50; system under study: HPK1 (Homo sapiens (Human), UniProt Q92918).
Sequence (Q92918 whole entry): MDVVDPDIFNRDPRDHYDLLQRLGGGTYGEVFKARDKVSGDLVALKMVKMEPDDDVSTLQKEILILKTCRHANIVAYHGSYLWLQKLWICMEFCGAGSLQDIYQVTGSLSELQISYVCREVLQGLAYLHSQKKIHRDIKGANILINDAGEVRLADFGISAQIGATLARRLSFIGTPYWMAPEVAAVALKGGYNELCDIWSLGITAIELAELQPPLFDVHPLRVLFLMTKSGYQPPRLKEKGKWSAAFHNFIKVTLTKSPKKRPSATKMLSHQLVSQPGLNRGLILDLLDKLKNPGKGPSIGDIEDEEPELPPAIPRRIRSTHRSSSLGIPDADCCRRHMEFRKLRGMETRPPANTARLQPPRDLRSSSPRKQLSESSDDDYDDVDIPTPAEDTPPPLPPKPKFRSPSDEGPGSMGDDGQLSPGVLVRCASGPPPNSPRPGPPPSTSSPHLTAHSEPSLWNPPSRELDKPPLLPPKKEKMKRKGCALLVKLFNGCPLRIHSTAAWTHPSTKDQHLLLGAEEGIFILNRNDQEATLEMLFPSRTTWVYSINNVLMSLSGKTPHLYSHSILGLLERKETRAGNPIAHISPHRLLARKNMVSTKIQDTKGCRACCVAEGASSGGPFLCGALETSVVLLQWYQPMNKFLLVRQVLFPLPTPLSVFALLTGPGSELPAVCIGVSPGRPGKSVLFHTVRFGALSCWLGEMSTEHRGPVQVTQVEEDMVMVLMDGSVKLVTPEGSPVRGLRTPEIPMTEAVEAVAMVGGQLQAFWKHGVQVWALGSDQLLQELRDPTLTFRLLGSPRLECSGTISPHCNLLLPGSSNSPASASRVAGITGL

- structure-as-smiles: "Cc1cccc(F)c1-n1nc2c(-c3ccc4c(c3)CN(C)CC4)n[nH]c2cc1=O"
  pIC50: "≥ 7.30"

// query Can you look up pIC50 on HPK1 (Homo sapiens (Human), UniProt Q92918) for CCc1cccc(F)c1-n1nc2c(-c3cnc(N4CCN(C)CC4)nc3)n[nH]c2cc1=O ?
// result 6.30 to 7.30

// query Can you look up pIC50 on HPK1 (Homo sapiens (Human), UniProt Q92918) for COc1cc(F)cc(F)c1-n1nc2c(-c3ccc4c(c3)CN(C)CC4)n[nH]c2cc1=O ?
// result 6.30 to 7.30

# credit: patent US20230322789A1
